Task for the reader: assign each of the following binders its reported pKd.
Target: T1, cynomolgus IL-4Rα HIS FLAG (cynomolgus)
T1 construct: also called Cyno IL4Rα HIS FLAG; not shown: HIS and FLAG tags and any vector-encoded linker of the cynomolgus HIS FLAG construct
T1 chain: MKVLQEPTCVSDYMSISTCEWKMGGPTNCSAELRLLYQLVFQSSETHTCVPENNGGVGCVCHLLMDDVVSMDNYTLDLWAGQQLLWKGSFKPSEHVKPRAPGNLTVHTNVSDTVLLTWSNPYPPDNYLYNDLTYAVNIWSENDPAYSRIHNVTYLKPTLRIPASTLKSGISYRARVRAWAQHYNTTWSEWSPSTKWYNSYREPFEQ
Assay: SPR (BIAcore 2000), IgG captured on Protein G', receptor as analyte, 1:1 Langmuir
Answers are plain numbers, as −log10 of the molar value.

Use these answered entries as a reference point.
Entry Antibody 9 IgG (antibody, V domains shown) VH: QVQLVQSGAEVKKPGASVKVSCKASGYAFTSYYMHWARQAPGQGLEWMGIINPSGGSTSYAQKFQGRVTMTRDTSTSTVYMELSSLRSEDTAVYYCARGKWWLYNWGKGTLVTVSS VL: QSVLTQPPSVSAAPGQKVTISCSGGSSNIGNSYVSWYQQLPGTAPKLLIYDNNKRPSGIPDRFSGSKSGTSATLAITGLQTGDEADYYCGTWDTSTTMYPLFGTGTKLTVL has what pKd? 6.91

Follow-up item: Antibody 37GL IgG (antibody, V domains shown, germlined IgG; also called Antibody 37 (FGL)) VH: QVQLVQSGAEVKKPGASVKVSCKASGYAFTSYYMHWVRQAPGQGLEWMGIINPRGGSTSYAQKFQGRVTMTRDTSTSTVYMELSSLRSEDTAVYYCARGKYWMYDWGKGTLVTVSS VL: QSVLTQPPSVSAAPGQKVTISCSGGGSSIGNSYVSWYQQLPGTAPKLLIYDNNKRPSGIPDRFSGSKSGTSATLGITGLQTGDEADYYCGTWDTSPVWEWPFGTGTKLTVL 8.36

Antibody 37 IgG (antibody, V domains shown) VH: QVQLVQSGAEVKKPGASVKVSCKASGYAFTSYYMHWARQAPGQGLEWMGIINPRGGSTSYAQKFQGRVAMTRDTSTSTVYMELSSLRPEDTAVYYCARGKYWMYDWGKGTLVTVSS VL: QSVLTQPPSVSAAPGQKVTISCSGGGSSIGNSYVSWYQQLPGTAPKLLIYDNNKRPSGVPDRFSGSKSGTSATLAITGLQTGDEADYYCGTWDTSPVWEWPFGTGTKLTVL , same question. 8.53

Kindly review the next binder as well.
Would you kindly share the measured pKd for Antibody 20 IgG (antibody, V domains shown) VH: QVQLVQSGAEVKKPGASVKVSCKASGYAFTSYYMHWARQAPGQGLEWMGIINPSGGSTSYAQKFQGRVTMTRDTSTSTVYMELSSLRSEDTAVYYCARGKYWMYDWGKGTLVTVSS VL: QSVLTQPPSVSAAPGQKVTISCSGGSSNIGNSYVSWYQQLPGTAPKLLIYDNNKRPSGIPDRFSGSKSGTSATLAITGLQTGDEADYYCGTWDTSTVWEWPFGTGTKLTVL ? 7.56
